Consider the following ABCB1 TD50 values measured on Jurkat-DNR cells.

The examples below pair each entry with its known result.
COMPOUND: O=C(c1ccoc1)N1CCN(c2cc(-c3ccncc3)nc3cc(-c4cccc(Cl)c4)nn23)CC1
SYSTEM_NAME: Jurkat-DNR cells
READOUT_VALUE: 13.50 µM

COMPOUND: O=C(c1ccncc1)N1CCN(c2cc(-c3ccccc3)nc3cc(-c4cccc(Cl)c4)nn23)CC1
SYSTEM_NAME: Jurkat-DNR cells
READOUT_VALUE: 10.90 µM

COMPOUND: COc1cccc(-c2cc3nc(-c4ccco4)cc(N4CCN(C(C)=O)CC4)n3n2)c1
SYSTEM_NAME: Jurkat-DNR cells
READOUT_VALUE: 49.30 µM

COMPOUND: COc1ccccc1-c1cc2nc(-c3ccccc3)cc(N3CCN(C(=O)c4ccoc4)CC3)n2n1
SYSTEM_NAME: Jurkat-DNR cells
READOUT_VALUE: 4.37 µM

COMPOUND: O=C(c1ccoc1)N1CCN(c2cc(-c3ccco3)nc3cc(-c4ccccc4)nn23)CC1
SYSTEM_NAME: Jurkat-DNR cells
READOUT_VALUE: 5.52 µM

COMPOUND: CC(=O)N1CCN(c2cc(-c3ccco3)nc3cc(-c4ccccc4)nn23)CC1
SYSTEM_NAME: Jurkat-DNR cells
READOUT_VALUE: 10.10 µM

# return ABCB1 TD50 for each item in the list
1. Cc1nc2cc(-c3cccc(Cl)c3)nn2c(N2CCN(C(=O)c3ccco3)CC2)c1C
2. COc1ccccc1-c1cc(N2CCN(C(=O)c3ccoc3)CC2)n2nc(-c3ccccc3)cc2n1
3. O=C(NCCCN1CCOCC1)c1cnn2c(-c3ccccc3)cc(-c3ccccc3)nc12 [Compound 6, reversan, reference compound]
4. O=C(Cc1ccccc1)N1CCN(c2cc(-c3ccccc3)nc3cc(-c4cccc(Cl)c4)nn23)CC1
5. O=C(c1ccoc1)N1CCN(c2cc(-c3ccco3)nc3cc(-c4ccco4)nn23)CC1
6. CC(=O)N1CCN(c2cc(-c3ccco3)nc3cc(-c4cccc(Cl)c4)nn23)CC1
7. O=C(c1ccoc1)N1CCN(c2cc(-c3ccoc3)nc3cc(-c4ccccc4)nn23)CC1

Output:
>100 µM
3.73 µM
7.04 µM
17.80 µM
1.93 µM
17.60 µM
7.33 µM

Give ABCB1 TD50 for each of the items listed below.
1. COc1cccc(-c2cc3nc(-c4ccco4)cc(N4CCN(C(=O)c5ccoc5)CC4)n3n2)c1
2. COc1ccc(-c2cc3nc(-c4ccccc4)cc(N4CCN(C(=O)c5ccoc5)CC4)n3n2)cc1
3. O=C(c1cccnc1)N1CCN(c2cc(-c3ccccc3)nc3cc(-c4cccc(Cl)c4)nn23)CC1

Output:
["5.52 µM", "5.54 µM", "4.72 µM"]

----------
Molecular target: ABCG2 (Homo sapiens, UniProt Q9UNQ0)
Sequence (Q9UNQ0 whole entry): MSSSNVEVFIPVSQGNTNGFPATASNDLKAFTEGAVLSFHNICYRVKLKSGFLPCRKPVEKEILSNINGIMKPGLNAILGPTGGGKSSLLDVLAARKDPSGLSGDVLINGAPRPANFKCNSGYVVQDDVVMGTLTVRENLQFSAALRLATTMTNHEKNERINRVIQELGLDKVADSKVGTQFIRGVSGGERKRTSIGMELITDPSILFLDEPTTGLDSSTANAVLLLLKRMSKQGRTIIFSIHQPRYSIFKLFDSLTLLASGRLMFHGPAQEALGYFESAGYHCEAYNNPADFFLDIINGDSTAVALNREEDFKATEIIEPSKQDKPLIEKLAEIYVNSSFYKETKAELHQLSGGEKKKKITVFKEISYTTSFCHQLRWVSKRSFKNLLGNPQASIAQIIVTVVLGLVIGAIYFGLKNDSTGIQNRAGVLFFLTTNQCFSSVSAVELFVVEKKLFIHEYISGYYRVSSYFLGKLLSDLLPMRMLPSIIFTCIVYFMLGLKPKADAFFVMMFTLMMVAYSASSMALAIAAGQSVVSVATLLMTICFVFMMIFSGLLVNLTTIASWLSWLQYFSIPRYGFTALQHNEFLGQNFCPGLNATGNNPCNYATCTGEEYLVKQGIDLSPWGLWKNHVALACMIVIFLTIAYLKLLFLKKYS
Assay: JC-1 efflux inhibition dose-response, flow cytometry, Ig-MXP3 cells
Type: cell-based
Settings: quotient of average ABCB1 IC50 and average ABCG2 IC50, JC-1 efflux assay
Answer each item with its documented ∼Fold G2 Selective.
Answers are plain numbers, in fold.

# count of solved cases: 5
COMPOUND_STRUCTURE: O=C(c1ccsc1)N1CCN(c2cc(-c3ccccc3)nc3cc(-c4cccc(Cl)c4)nn23)CC1
∼Fold G2 Selective, fold: 2.8
//
COMPOUND_STRUCTURE: O=C(c1ccccc1)N1CCN(c2cc(-c3ccccc3)nc3cc(-c4ccc(F)cc4)nn23)CC1
∼Fold G2 Selective, fold: 2.0
//
COMPOUND_STRUCTURE: COc1cccc(-c2cc3nc(-c4ccccc4)cc(N4CCN(C(=O)c5ccoc5)CC4)n3n2)c1
∼Fold G2 Selective, fold: 2.0
//
COMPOUND_STRUCTURE: CC(=O)N1CCN(c2cc(-c3ccccc3)nc3cc(-c4cccc(Cl)c4)nn23)CC1
∼Fold G2 Selective, fold: 0.9
//
COMPOUND_STRUCTURE: COc1cccc(-c2cc(N3CCN(C(=O)c4ccoc4)CC3)n3nc(-c4cccc(Cl)c4)cc3n2)c1
∼Fold G2 Selective, fold: 1.9

Batch lookup, ∼Fold G2 Selective per entry.
1. COc1ccccc1-c1cc2nc(-c3ccccc3)cc(N3CCN(C(=O)c4ccccc4)CC3)n2n1
2. COc1ccc(-c2cc(N3CCN(C(=O)c4ccoc4)CC3)n3nc(-c4cccc(Cl)c4)cc3n2)cc1
3. O=C(c1ccccc1)N1CCN(c2cc(-c3ccccc3)nc3cc(-c4cccc(Cl)c4)nn23)CC1
4. Cc1cc(N2CCN(C(=O)c3ccco3)CC2)n2nc(-c3cccc(Cl)c3)cc2n1
5. C#Cc1cc(N2CCN(C(=O)c3ccoc3)CC2)n2nc(-c3cccc(Cl)c3)cc2n1

Output:
[3.0, 2.4, 2.4, 2.1, 4.3]

# map each compound to its ∼Fold G2 Selective
1. COc1ccccc1-c1cc(N2CCN(C(=O)c3ccoc3)CC2)n2nc(-c3ccccc3)cc2n1
2. O=C(Cc1ccccc1)N1CCN(c2cc(-c3ccccc3)nc3cc(-c4cccc(Cl)c4)nn23)CC1

Output:
1. 1.2
2. 0.8

Please go through the list and note ∼Fold G2 Selective for each compound.
1. COc1ccccc1C(=O)N1CCN(c2cc(-c3ccccc3)nc3cc(-c4cccc(Cl)c4)nn23)CC1
2. COc1ccccc1-c1cc2nc(-c3ccccc3)cc(N3CCN(C(=O)c4ccco4)CC3)n2n1
3. COc1ccccc1-c1cc2nc(-c3ccccc3)cc(N3CCN(C(=O)c4ccoc4)CC3)n2n1

Output:
1. 1.0
2. 2.9
3. 4.8

Please state ∼Fold G2 Selective for every compound in the list that follows.
1. O=C(c1ccco1)N1CCN(c2cc(-c3ccccc3)nc3cc(-c4cccc(Cl)c4)nn23)CC1
2. O=C(c1ccc(Cl)cc1)N1CCN(c2cc(-c3ccccc3)nc3cc(-c4cccc(Cl)c4)nn23)CC1
3. COc1cccc(C(=O)N2CCN(c3cc(-c4ccccc4)nc4cc(-c5cccc(Cl)c5)nn34)CC2)c1

Output:
6.4
0.9
0.6
